Values from BigSolDB 2.1

# Conditions: in benzyl alcohol, 285.65 K

# Molecule, solubility (mole fraction)
measured = [
    ("O=C1NC(=O)c2cc([N+](=O)[O-])ccc21", 0.0188),
]

----------
# Conditions: in cyclohexanone, 295.65 K

# Molecule, solubility (mole fraction)
rows = [
    ("O=C1NC(=O)c2cc([N+](=O)[O-])ccc21", 0.044),
]

----------
# Conditions: in DMF, 318.15 K

# Molecule, solubility (mole fraction)
measured = [
    ("O=C1NC(=O)c2cc([N+](=O)[O-])ccc21", 0.137),
]

----------
# Conditions: in chloroform, 308.15 K
Quantity: solubility (mole fraction)

# Molecule, Quantity, Measured Result
rows = [
    ("O=C1NC(=O)c2cc([N+](=O)[O-])ccc21", "solubility (mole fraction)", 0.0014),
]

----------
# Conditions: in chloroform, 305.65 K

# Molecule, solubility (mole fraction)
rows = [
    ("O=C1NC(=O)c2cc([N+](=O)[O-])ccc21", 0.00131),
]

----------
# Conditions: in cyclohexanone, 313.15 K

# Molecule, solubility (mole fraction)
data = [
    ("O=C1NC(=O)c2cc([N+](=O)[O-])ccc21", 0.0604),
]

----------
# Conditions: in ethanol, 273.15 K

# Molecule, solubility (mole fraction)
data = [
    ("O=C1NC(=O)c2cc([N+](=O)[O-])ccc21", 0.000713),
]

----------
# Conditions: in ethanol, 298.15 K

# Molecule, solubility (mole fraction)
records = [
    ("O=C1NC(=O)c2cc([N+](=O)[O-])ccc21", 0.00201),
]

----------
# Conditions: in 2-butanone, 323.15 K
Quantity: solubility (mole fraction)

# Molecule, Quantity, Measured Result
rows = [
    ("O=C1NC(=O)c2cc([N+](=O)[O-])ccc21", "solubility (mole fraction)", 0.038),
]

----------
# Conditions: in acetonitrile, 273.15 K

# Molecule, solubility (mole fraction)
measured = [
    ("O=C1NC(=O)c2cc([N+](=O)[O-])ccc21", 0.00359),
]

----------
# Conditions: in chloroform, 273.15 K

# Molecule, solubility (mole fraction)
data = [
    ("O=C1NC(=O)c2cc([N+](=O)[O-])ccc21", 0.000535),
]

----------
# Conditions: in acetonitrile, 318.15 K

# Molecule, solubility (mole fraction)
data = [
    ("O=C1NC(=O)c2cc([N+](=O)[O-])ccc21", 0.00894),
]

----------
# Conditions: in acetone, 293.15 K
Quantity: solubility (mole fraction)

# Molecule, Quantity, Measured Result
measured = [
    ("O=C1NC(=O)c2cc([N+](=O)[O-])ccc21", "solubility (mole fraction)", 0.025),
]

----------
# Conditions: in cyclohexanone, 285.65 K
Quantity: solubility (mole fraction)

# Molecule, Measured Result
measured = [
    ("O=C1NC(=O)c2cc([N+](=O)[O-])ccc21", 0.0367),
]

----------
# Conditions: in benzyl alcohol, 298.15 K

# Molecule, solubility (mole fraction)
data = [
    ("O=C1NC(=O)c2cc([N+](=O)[O-])ccc21", 0.0261),
]

----------
# Conditions: in methanol, 318.15 K

# Molecule, solubility (mole fraction)
rows = [
    ("O=C1NC(=O)c2cc([N+](=O)[O-])ccc21", 0.00566),
]
